# test_summary: chemical genetic growth profiling, strain panel (AID 1159580);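 note: tested at 20 µM; growth read once vehicle control cultures reached saturation at 30 °C; 1 = growth at the plate median or of vehicle wells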
# conditions_used: S. cerevisiae deletion strains, growth OD, locus YLR027C, strain aat2, stronger effect = lower value
In all, about 5,500 compounds went through this assay and about 2,000 (36%) were called active. About 18% were inconclusive and are not listed. This is one part of the list.
outcome_measure: normalized growth
Could you respond with only the numeric value?

compound	normalized growth
CC(=O)Oc1cc(-c2coc3cc(OC(C)=O)c(OC(C)=O)c(OC(C)=O)c3c2=O)cc(OC(C)=O)c1OC(C)=O	0.964
FC(F)(F)C(Cl)Br (stereo unspecified)	1.02
CCOC(=O)C1C(C=C(C)C)C1(C)C (stereo unspecified)	0.982
CC[N+]1(C)CCCC(OC(=O)C(O)(c2ccccc2)c2ccccc2)C1 (stereo unspecified)	1.01
COc1ccc(-c2cc(=O)c3c(OC(C)=O)cc(OC(C)=O)cc3o2)cc1	0.984

Okay, now this compound:
Lookup: Which value of normalized growth has been reported for O=C(O)c1cn(-c2ccc(F)cc2)c2cc(N3CCNCC3)c(F)cc2c1=O in the records?
Found: 0.982

====

Listed next: entries and their corresponding normalized growth.
# test_summary: chemical genetic growth profiling, strain panel (AID 1159580)
# conditions_used: S. cerevisiae deletion strains, growth OD, locus YER016W, strain bim1, stronger effect = lower value
The campaign covered roughly 5,500 compounds. About 2,000 (36%) were called active. About 18% were inconclusive and are not listed. The list shows a part of the results.
Could you respond with only the numeric value?

compound	value_observed
CCC(CCC(C)[C@H]1CCC2C3CC=C4C[C@@H](O)CC[C@]4(C)C3CC[C@@]21C)C(C)C (stereo not given in full)	1.02

Lookup: Which value of normalized growth has been reported for CC(=O)OCC(=O)[C@H]1CCC2C3CC=C4C[C@@H](O)CC[C@]4(C)C3CC[C@@]21C (stereo not given in full) in the records?
Found: 0.967

Lookup: Same for CCC(/C=C/[C@@H](C)[C@H]1CCC2C3CC=C4C[C@@H](O)CC[C@]4(C)C3CC[C@@]21C)C(C)C (stereo not given in full)
Found: 0.979

Lookup: Same for Nc1ccc(C(=O)O)c(O)c1
Found: 1

Lookup: Same for CC(=O)[C@H]1CCC2C3CC=C4C[C@@H](OC(=O)CCC(=O)O)CC[C@]4(C)C3CC[C@@]21C (stereo not given in full)
Found: 0.969

Lookup: Same for CC(C(=O)O)[C@H]1CCC2C3CC=C4C[C@@H](O)CC[C@]4(C)C3CC[C@@]21C (stereo not given in full)
Found: 1.04

====

# test_summary: chemical genetic growth profiling, strain panel (AID 1159580)
# conditions_used: S. cerevisiae deletion strains, growth OD, locus YMR129W, stronger effect = lower value
Among all 5,500 compounds or so, about 2,000 (36%) were called active. About 18% were inconclusive and are not listed. The list shows a part of the results.
outcome_measure: normalized growth
Could you respond with only the numeric value?

Lookup: Which value of normalized growth has been reported for COc1cccc2c1cc([N+](=O)[O-])c1c(C(=O)O)cc3c(c12)OCO3 in the records?
Found: 1.02

====

# test_summary: chemical genetic growth profiling, strain panel (AID 1159580)
# conditions_used: S. cerevisiae deletion strains, growth OD, locus YLR342W, strain FKS1
Among all 5,500 compounds or so, about 2,000 (36%) were called active. Roughly 18% stayed inconclusive and do not appear here. No stated cut-off is given here; in the data, active means normalized growth mostly below about 0.91 (no sharp cut-off); inconclusive means no clear call, values can overlap the other calls; inactive means mostly above about 0.92. The list shows a part of the results.
Valid outcomes are listed here; reply with one: active, inactive

compound	group_label
O=C(/C=C/c1ccccc1)c1ccc(O)cc1	active
O=c1c(-c2ccccc2)coc2cc(O)cc(O)c12	inactive
CCCN1C[C@H](CSC)C[C@@H]2c3cccc4[nH]cc(c34)C[C@H]21	inactive
CC(=O)O[C@@H]1CC2C(C)(C)C(=O)CC[C@]2(C)C2CC[C@@]3(C)[C@H](c4ccoc4)OC(=O)C4OC43[C@@]21C (some centres undefined)	inactive
COc1cc([C@@H]2c3cc4c(cc3[C@H](O)[C@H]3COC(=O)[C@@H]23)OCO4)cc(OC)c1OC	inactive

Lookup: // param item: CN(C)CCC=C1c2ccccc2C=Cc2ccccc21 ; yields the recorded call
Found: inactive

Lookup: Same for O=c1[nH]c2cc(Cl)c(Cl)cc2[nH]c1=O
Found: inactive

Lookup: Same for CC1(C)O[C@@H]2CC3C4C[C@H](F)C5=CC(=O)C=C[C@]5(C)[C@@]4(F)[C@@H](O)C[C@]3(C)[C@]2(C(=O)CO)O1 (some centres undefined)
Found: inactive

====

# test_summary: chemical genetic growth profiling, strain panel (AID 1159580);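 note: tested at 20 µM; growth read once vehicle control cultures reached saturation at 30 °C; 1 = growth at the plate median or of vehicle wells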
# conditions_used: S. cerevisiae deletion strains, growth OD, locus YDL035C, strain GPR1
In all, about 5,500 compounds went through this assay and about 2,000 (36%) were called active. Roughly 18% stayed inconclusive and do not appear here. Cut-off read from the data, not from the text of the source: active = normalized growth mostly below about 0.91 (no sharp cut-off); inconclusive = no clear call, values can overlap the other calls; inactive = mostly above about 0.92. This is one part of the list.
Valid outcomes are listed here; reply with one: Y = active, N = inactive

molecule	group_label
CC1=C2C(=CO[C@H](C)[C@H]2C)C(=O)C(C(=O)O)=C1O	N
C=CCc1ccccc1OCC(O)CNC(C)C (configuration not stated)	N
COc1ccc(-c2cc(=O)c3c(OC)cccc3o2)cc1	N
CC[N+]1(C)CCCC(OC(=O)C(O)(c2ccccc2)c2ccccc2)C1 (configuration not stated)	N

Read the next record carefully.
Lookup: // param item: CCOC(=O)C1C(C=C(C)C)C1(C)C (configuration not stated) ; yields the recorded call
Found: N

====

# test_summary: chemical genetic growth profiling, strain panel (AID 1159580);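 note: tested at 20 µM; growth read once vehicle control cultures reached saturation at 30 °C; 1 = growth at the plate median or of vehicle wells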
# conditions_used: S. cerevisiae deletion strains, growth OD, locus YOR136W, strain idh2, stronger effect = lower value
About 2,000 (36%) of roughly 5,500 compounds were called active. About 18% were inconclusive and are not listed. The list shows a part of the results.
outcome_measure: normalized growth

Example molecules with recorded normalized growth:
molecule	normalized growth
CCN(CC)CCNc1ccc(CO)c2sc3ccccc3c(=O)c12	1.01 (inactive)
CCC/C=C/C=C/[C@@H]1C[C@@H](O)[C@@H](O)C(=O)[C@H]1C=O	0.996 (inactive)

Lookup: Which value of normalized growth has been reported for C[C@@H]1CC[C@@]2(OC1)OC1C(O)C3C4CC[C@H]5C[C@H](O[C@@H]6O[C@H](CO)[C@H](O[C@@H]7O[C@H](CO)[C@@H](O)[C@H](O[C@@H]8OC[C@@H](O)[C@H](O)[C@H]8O)[C@H]7O[C@@H]7O[C@H](CO)[C@H](O)[C@H](O[C@@H]8O[C@H](CO)[C@@H](O)[C@H](O)[C@H]8O)[C@H]7O)[C@H](O)[C@H]6O)[C@H](O)C[C@]5(C)C4CC[C@]3(C)C1[C@@H]2C (stereo partly drawn) in the records?
Found: 0.0668 (active)

Lookup: Same for COc1ccc(-c2coc3cc(O)cc(O)c3c2=O)cc1
Found: 0.304 (active)

Lookup: Same for CC(C)(Oc1ccc(Cl)cc1)C(=O)O
Found: 0.989 (inactive)

Lookup: Same for CC(=O)Nc1cccc(O)c1
Found: 0.995 (inactive)

Lookup: Same for Nc1ccc(C(=O)O)c(O)c1 (tested in a mixture with another compound)
Found: 0.987 (inactive)

Lookup: Same for CC1=C2C(=CO[C@H](C)[C@H]2C)C(=O)C(C(=O)O)=C1O
Found: 0.985 (inactive)

====

# test_summary: chemical genetic growth profiling, strain panel (AID 1159580);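 note: tested at 20 µM; growth read once vehicle control cultures reached saturation at 30 °C; 1 = growth at the plate median or of vehicle wells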
# conditions_used: S. cerevisiae deletion strains, growth OD, locus YMR307W, strain GAS1
About 2,000 (36%) of roughly 5,500 compounds were called active. Another 18% or so got no clear call; they are omitted. No stated cut-off is given here; in the data, active means normalized growth mostly below about 0.91 (no sharp cut-off); inconclusive means no clear call, values can overlap the other calls; inactive means mostly above about 0.92. The list shows a part of the results.
Valid outcomes are listed here; reply with one: y = active, n = inactive

Below are worked cases with known answers.
molecule	group_label
O=c1oc2ccccc2c(O)c1Cc1c(O)c2ccccc2oc1=O	n
COc1ccc2c(=O)cc(-c3ccccc3OC)oc2c1	y
Cc1coc2ccccc2c1=O	n
COc1cccc(-c2cc(=O)c3ccc(OC)cc3o2)c1	n
Cc1ccc(C(=O)c2ccccc2[N+](=O)[O-])cc1	y
CC1=NCCc2c1[nH]c1cc(O)ccc21	n

Lookup: // param item: COc1cccc(-c2cc(=O)c3cc(OC)ccc3o2)c1 ; yields the recorded call
Found: n

Lookup: Same for COc1ccc(-c2coc3cc(OC)cc(O)c3c2=O)cc1
Found: n

Lookup: Same for COc1cc(O)c2c(=O)c(-c3ccc(O)cc3)coc2c1
Found: n

Lookup: Same for CNCCC=C1c2ccccc2CCc2ccccc21
Found: n

Lookup: Same for CC1(C)O[C@@H]2CC3C4CCC5=CC(=O)C=C[C@]5(C)[C@@]4(F)[C@@H](O)C[C@]3(C)[C@]2(C(=O)CO)O1 (stereo partly drawn)
Found: n

Lookup: Same for O=C1CC[C@]23C=CC(=O)NCCCCNCCCNC(=O)/C=C/c4ccc(c2c4)O[C@@H]3C1
Found: n

Lookup: Same for O=C(/C=C/c1ccccc1)c1ccc(O)cc1
Found: y

Lookup: Same for Cn1nnnc1SCC1=C(C(=O)O)N2C(=O)C(NC(=O)C(O)c3ccccc3)C2SC1 (stereo not drawn)
Found: n

Lookup: Same for CCOC(=O)c1ccc2oc3ccc(O)cc3c(=O)c2c1
Found: n

Lookup: Same for CCN(CC)CCNc1ccc(CO)c2sc3ccccc3c(=O)c12
Found: n

Lookup: Same for CCCCCCCCCCCCCCCC[n+]1ccccc1
Found: y

Lookup: Same for O=c1[nH]c(=O)n([C@H]2C[C@H](O)[C@@H](CO)O2)cc1/C=C/Br
Found: n

Lookup: Same for Cc1ccc(OCC(=O)NN)c2c1CCC2
Found: n

Lookup: Same for CCn1cc(C(=O)O)c(=O)c2cc(F)c(N3CCNCC3)cc21
Found: n

Lookup: Same for CC(=O)CC(c1ccccc1)c1c(O)c2ccccc2oc1=O (stereo not drawn)
Found: n

Lookup: Same for CN1C[C@@H](CS(=O)(=O)N(C)C)C[C@@H]2c3cccc4c3c(cn4C)C[C@H]21
Found: n

Lookup: Same for O=C1CCCc2c1c1ccccc1n2Cc1ccccc1
Found: n

Lookup: Same for O=c1c(-c2ccccc2)coc2cc(O)cc(O)c12
Found: y

Lookup: Same for Clc1ccc(Cl)cc1
Found: n

Lookup: Same for COc1cc([C@@H]2c3cc4c(cc3C(O[C@@H]3O[C@@H]5CO[C@@H](c6cccs6)OC5[C@H](O)[C@H]3O)C3COC(=O)[C@@H]32)OCO4)cc(OC)c1O (stereo partly drawn)
Found: n

Lookup: Same for CN1CCc2c(c3ccccc3n2Cc2ccccc2)C1
Found: n

Lookup: Same for C[C@@H]1C(=O)NC2=Nc3cccc(Cl)c3CN21
Found: n

Data provenance: PubChem BioAssay AID1159580
